pIC50: −log10 of the molar value.
# pIC50 measurements, system: cyclophilin A (Homo sapiens)

Compound	pIC50
CC(=O)O[C@H]1CC[C@@]2(/C=C/c3ccc4ccc(nc4c3)[C@@H](C)NC(=O)[C@@H]3CCCN(N3)C(=O)[C@H](C)NC(=O)[C@H](C(C)C)OC2=O)CC1	> 7.00
CC1NC(=O)C(C2CC2)OC(=O)C2(C=Cc3ccc4ccc(nc4c3)C(C)NC(=O)C3CCCN(N3)C1=O)CCC(O)C2 (single isomer, unassigned) [Compound 103]	> 7.00

In: Lookup: pIC50 / cyclophilin A (Homo sapiens) / C[C@@H]1NC(=O)[C@H](CC(F)F)OC(=O)C(C)(C)/C=C/c2ccc3ccc(nc3c2)[C@@H](C)NC(=O)[C@@H]2CCCN(N2)C1=O
Out: > 7.00

In: Please tell me: pIC50 of C[C@@H]1NC(=O)[C@H](C(C)(C)C)OC(=O)C(C)(C)/C=C/c2ccc3ccc(nc3c2)[C@@H](C)NC(=O)[C@@H]2CCCN(N2)C1=O , system cyclophilin A (Homo sapiens)?
Out: 5.00 to 6.00

In: Form: Entry = CC1/C=C/c2cc3cc(ccc3cn2)[C@@H](C)NC(=O)[C@@H]2CCCN(N2)C(=O)[C@H](C)NC(=O)[C@H](C(C)C)OC(=O)C1C (stereo partly shown) | System = cyclophilin A (Homo sapiens) | pIC50 = ____
Out: > 7.00

In: Find the measured pIC50: item CC(C)[C@@H]1N[C@@H](C(F)(F)F)C(C)(C)/C=C/c2ccc3ccc(nc3c2)[C@@H](C)OC(=O)[C@@H]2CCCN(N2)C(=O)[C@H](C)NC1=O , target or system cyclophilin A (Homo sapiens).
Out: 6.00 to 7.00

In: Form field - read-out: pIC50; system: cyclophilin A (Homo sapiens); submitted item: CC(=O)O[C@H]1CC[C@]2(/C=C/c3ccc4ccc(nc4c3)[C@@H](C)NC(=O)[C@@H]3CCCN(N3)C(=O)[C@H](C)NC(=O)[C@H](C(C)C)OC2=O)CC1
Out: > 7.00

In: Form field - read-out: pIC50; system: cyclophilin A (Homo sapiens); submitted item: CC(C)[C@@H]1OC(=O)CCCC/C=C/c2cccc(c2)[C@@H](C)NC(=O)[C@@H]2CCCN(N2)C(=O)[C@H](C)NC1=O
Out: > 7.00

In: // lookup pIC50 | system=cyclophilin A (Homo sapiens) | key= CCC(=O)O[C@H]1CC[C@]2(/C=C/c3ccc4ccc(nc4c3)[C@@H](C)NC(=O)[C@@H]3CCCN(N3)C(=O)[C@H](C)NC(=O)[C@H](C(C)C)OC2=O)CC1
Out: > 7.00

In: Item: CC(C)[C@@H]1NS(=O)(=O)C/C=C/c2cc3cc(ccc3cn2)[C@@H](C)OC(=O)[C@@H]2CCCN(N2)C(=O)[C@H](C)NC1=O Test system: cyclophilin A (Homo sapiens) Read-out: pIC50 Value: ?
Out: 6.00 to 7.00

In: Query pIC50 on cyclophilin A (Homo sapiens) for CC(C)[C@@H]1OC(=O)C2(/C=C/c3ccc4ccc(nc4c3)[C@@H](C)NC(=O)[C@@H]3CCCN(N3)C(=O)[C@H](C)NC1=O)COC(=O)OC2
Out: > 7.00

In: Fill in the recorded pIC50 for this compound, with cyclophilin A (Homo sapiens) as test system: CC[C@H](C)[C@@H]1OC(=O)C2(/C=C/c3ccc4ccc(nc4c3)[C@@H](C)NC(=O)[C@@H]3CCCN(N3)C(=O)[C@H](C)NC1=O)COCOC2
Out: > 7.00

In: Param readout = pIC50; param system = cyclophilin A (Homo sapiens); param query = CC(C)[C@@H]1OC(=O)C2(/C=C/c3ccc4ccc(nc4c3)[C@@H](C)NC(=O)[C@@H]3CCCN(N3)C(=O)[C@H](C)NC1=O)CCOC2 (stereo partly shown) ; response: value
Out: > 7.00

* * *

- Tested on: Huh-7 HCV replicon cells (1b replicon)
- Experimental Details: anti-HCV activity in Huh-7 cell line harboring a HCV replicon (luciferase readout)
- Assay type: cell-based
- Setup Conditions: Hepatitis C virus, Huh-7, read-out: Replicon 1b % inhibition at 1 μM, 1b replicon, 1 μM compound
Measurement Type: inhibition at 1 µM (%)
Quick reminder: number only, in %, skip the unit.

Molecule	Measurement Type	Unit Tag	Observed Measurement
CC(C)[C@@H]1OC(=O)CCCC/C=C/c2cccc(c2)[C@@H](C)NC(=O)[C@@H]2CCCN(N2)C(=O)[C@H](C)NC1=O [Compound 8]	inhibition at 1 µM	%	95

In: Form field: reported inhibition at 1 µM of CC(C)[C@@H]1NCC(C)(C)/C=C/c2ccc3ccc(nc3c2)[C@@H](C)OC(=O)[C@@H]2CCCN(N2)C(=O)[C@H](C)NC1=O [Compound 25]
Out: 98

In: What measured inhibition at 1 µM goes with CC(C)[C@@H]1OC(=O)C(C)(C)C/C=C/c2cc3cc(ccc3cn2)[C@@H](C)NC(=O)[C@@H]2CCCN(N2)C(=O)[C@H](C)NC1=O [Compound 12] ?
Out: 100

In: # query: inhibition at 1 µM of entry CC(C)[C@@H]1OC(=O)[C@H](C)[C@H](O)CC/C=C/c2cccc(c2)[C@@H](C)NC(=O)[C@@H]2CCCN(N2)C(=O)[C@H](C)NC1=O [Compound 7]
Out: 94

* * *

// values below are IC50; system is cyclophilin A (Homo sapiens, UniProt P62937)
Sequence (P62937 whole entry, species assumed): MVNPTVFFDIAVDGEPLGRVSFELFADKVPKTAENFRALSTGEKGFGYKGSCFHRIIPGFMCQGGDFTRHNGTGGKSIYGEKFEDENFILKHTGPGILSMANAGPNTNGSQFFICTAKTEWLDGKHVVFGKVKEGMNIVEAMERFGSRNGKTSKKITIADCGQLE

In: # lookup: IC50 of C[C@@H]1NC(=O)[C@H](C2CCCC2)OC(=O)C2(/C=C/c3ccc4ccc(nc4c3)[C@@H](C)NC(=O)[C@@H]3CCCN(N3)C1=O)COCOC2 [Compound 63]
Out: < 100 nM

In: Dear colleague, I am looking for the recorded IC50 of the following molecule: C[C@@H]1NC(=O)[C@H](C)OC(=O)C(C)(C)/C=C/c2ccc3ccc(nc3c2)[C@@H](C)NC(=O)[C@@H]2CCCN(N2)C1=O [Compound 61]
Out: 101 to 1000 nM

In: I'd like to know its IC50. The molecule in question is CC(C)[C@@H]1OC(=O)C2(/C=C/c3ccc4ccc(nc4c3)[C@@H](C)NC(=O)[C@@H]3CCCN(N3)C(=O)[C@H](C)NC1=O)COC(CF)(CF)OC2 [Compound 107]
Out: < 100 nM

In: Any idea what its IC50 is? The molecule is CC(C)[C@@H]1OC(=O)[C@@](C)(COC(F)(F)F)/C=C/c2ccc3ccc(nc3c2)[C@@H](C)NC(=O)[C@@H]2CCCN(N2)C(=O)[C@H](C)NC1=O [Compound 56]
Out: < 100 nM

In: Fill in: IC50 of CC1NC(=O)C(C2CC2)OC(=O)C2(C=Cc3ccc4ccc(nc4c3)C(C)NC(=O)C3CCCN(N3)C1=O)CCC(O)C2 (single isomer, unassigned) [Compound 104] is ___
Out: < 100 nM

* * *

Measured inhibition at 1 µM of individual entries
- System: Huh-7 HCV replicon cells (1b replicon)
- Experimental Details: anti-HCV activity in Huh-7 cell line harboring a HCV replicon (luciferase readout)
- Type: cell-based
- Setup Conditions: Hepatitis C virus, Huh-7, read-out: Replicon 1b % inhibition at 1 μM, 1b replicon, 1 μM compound
Hi, when you answer, please include the unit after the number. Thanks!

Example entries and their recorded answers appear below.
Molecule	inhibition at 1 µM
CC(C)[C@@H]1NS(=O)(=O)C/C=C/c2cc3cc(ccc3cn2)[C@@H](C)OC(=O)[C@@H]2CCCN(N2)C(=O)[C@H](C)NC1=O	71%
CC[C@H](C)[C@@H]1OC(=O)C2(/C=C/c3ccc4ccc(nc4c3)[C@@H](C)NC(=O)[C@@H]3CCCN(N3)C(=O)[C@H](C)NC1=O)COCOC2	99%

Kindly review the next compound as well.
In: Requested field: inhibition at 1 µM. Item: C[C@@H]1NC(=O)[C@H](C2CC2)OC(=O)C2(/C=C/c3ccc4ccc(nc4c3)[C@@H](C)NC(=O)[C@@H]3CCCN(N3)C1=O)COCCOC2
Out: 98%

FYI, the data here is from patent US9642889B2.
